target: Phosphodiesterase 3 (Homo sapiens, UniProt Q14432+Q13370); assay: Inhibition of phosphodiesterase 3(PDE 3)
result_type: IC50 (µM)
A number alone suffices; assume µM.

Lookup: Return reported IC50. Input compound: `CCCCc1nc(SCc2ccc(-c3ccccc3-c3nn[nH]n3)cc2)c2ccccc2n1`
Found: 8

---

assay: Acid dissociation value was evaluated; type: ADME
Could you label it Criterion met if measured pKa is 4 or higher, and Criterion not met otherwise?

> print(dat)
                                   compound        label.class
1  CCCc1nc2c(C)cc(-c3nc4ccccc4n3C)cc2n1Cc1ccc(-c2ccccc2C(=O)O)cc1      Criterion met
2  CCCCC(=O)N(Cc1ccc(-c2ccccc2-c2nnn[nH]2)cc1)[C@H](C(=O)O)C(C)C  Criterion not met
3  CCCCc1nc(Cl)c(CO)n1Cc1ccc(-c2ccccc2-c2nn[nH]n2)cc1 [LOSARTAN POTASSIUM]      Criterion met
4  CCCCc1nc(Cl)c(C(=O)O)n1Cc1ccc(-c2ccccc2-c2nn[nH]n2)cc1 [CARBOXYLIC ACID METABOLITE]  Criterion not met

Moving on to another compound below.
Lookup: hey, is pKa for this one >= 4? CCCCC1=NC2(CCCC2)C(=O)N1Cc1ccc(-c2ccccc2-c2nnn[nH]2)cc1 [IRBESARTAN]
Found: Criterion met
